The values you see were collected from paper PMC4496089.

- System: E. coli ATCC 25922
- assay.remarks: Antibiotic susceptibility test (broth microdilution MIC)
- Format: cell-based
- setup.conditions: Escherichia coli, ATCC25922; E. coli ATCC 25922; CAMHB, 35°C, 16 to 20 hours; read-out: Minimal inhibitory concentration
- Experimental: Antimicrobial susceptibility testing was performed by broth microdilution in cation-adjusted Mueller–Hinton broth (CAMHB) according to the CLSI guidelines. Overnight culture was suspended in CAMHB, and the OD625 was measured using an Ultrospec 6300 pro spectrophotometer (GE Healthcare). […] The minimum inhibitory concentration (MIC) endpoint was defined as the lowest concentration of the test chemical that inhibited bacterial growth as detected by the unaided eye.
Task for the reader: assign each of the following molecules its reported MIC.

Item C[C@@H](O)[C@H]1C(=O)N2C(C(=O)O)=C(S[C@@H]3CN[C@H](CNS(N)(=O)=O)C3)[C@H](C)[C@H]12 [Doripenem, reference compound] has what recorded MIC? ≤ 0.063 µg/mL

For the molecule shown here, O=C(c1cccc(-n2cnnc2)c1)N1CC2CCC(Cc3cccc(Cl)c3)C2C1 (stereo not drawn) , give the reported MIC. > 64 µg/mL

Given the molecule O=C(NNC(=S)NC1CC2CCC1C2)c1cc2ccccc2cc1O (stereo not drawn) , what is its reported MIC? > 32 µg/mL

Given "O=C(NNS(=O)(=O)c1cc(Cl)ccc1Cl)c1cc2c(s1)CCCC2" , state its recorded MIC. > 64 µg/mL

May I ask what MIC has been recorded for CS(=O)(=O)NC1=NN2C(=NC(c3ccccc3)=CC2c2ccccc2Cl)N1 (stereo not drawn) ? > 64 µg/mL

Fill blank: measured MIC of the molecule COc1ccc(C2C=C(c3ccc(Br)cc3)N=C3NC(NS(C)(=O)=O)=NN32)cc1 (stereo not drawn) is ____. > 64 µg/mL

====

- System: K. pneumoniae ATCC 13883
- assay.remarks: Antibiotic susceptibility test (broth microdilution MIC)
- Type: cell-based
- setup.conditions: Klebsiella pneumoniae, ATCC13883; K. pneumoniae ATCC 13883; CAMHB, 35°C, 16 to 20 hours; read-out: Minimal inhibitory concentration
parameter.measured: MIC

Query (molecule): C[C@@H](O)[C@H]1C(=O)N2C(C(=O)O)=C(S[C@@H]3CN[C@H](CNS(N)(=O)=O)C3)[C@H](C)[C@H]12 [Doripenem, reference compound] ; field requested: MIC 0.125 µg/mL

# input molecule: COc1ccc(C2C=C(c3ccc(Br)cc3)N=C3NC(NS(C)(=O)=O)=NN32)cc1 (stereo not drawn) ; wanted: its MIC > 64 µg/mL

Sample CS(=O)(=O)NC1=NN2C(=NC(c3ccccc3)=CC2c2ccccc2Cl)N1 (stereo not drawn) — what was its MIC? > 64 µg/mL

Given the entry O=C(NNC(=S)NC1CC2CCC1C2)c1cc2ccccc2cc1O (stereo not drawn) , report its measured MIC. > 32 µg/mL

# input molecule: "O=C(NNS(=O)(=O)c1cc(Cl)ccc1Cl)c1cc2c(s1)CCCC2" ; wanted: its MIC > 64 µg/mL

Fill in: MIC of O=C(c1cccc(-n2cnnc2)c1)N1CC2CCC(Cc3cccc(Cl)c3)C2C1 (stereo not drawn) is ___ > 64 µg/mL

====

- Tested on: S. pneumoniae Type I
- assay.remarks: Antibiotic susceptibility test (broth microdilution MIC)
- Format: cell-based
- setup.conditions: Streptococcus pneumoniae; S. pneumoniae Type I; CAMHB, 35°C, 16 to 20 hours; read-out: Minimal inhibitory concentration
parameter.measured: MIC

Consider the molecule CS(=O)(=O)NC1=NN2C(=NC(c3ccccc3)=CC2c2ccccc2Cl)N1 (stereo not drawn) [Chemical #6] and give its measured MIC. > 64 µg/mL

I have this molecule here, COc1ccc(C2C=C(c3ccc(Br)cc3)N=C3NC(NS(C)(=O)=O)=NN32)cc1 (stereo not drawn) [Chemical #1] , and I need its recorded MIC. > 64 µg/mL

Returns the measured MIC for the input molecule. Input: O=C(NNS(=O)(=O)c1cc(Cl)ccc1Cl)c1cc2c(s1)CCCC2 [Chemical #3] > 64 µg/mL

Fill blank: measured MIC of the molecule C[C@@H](O)[C@H]1C(=O)N2C(C(=O)O)=C(S[C@@H]3CN[C@H](CNS(N)(=O)=O)C3)[C@H](C)[C@H]12 [Doripenem, reference compound] is ____. ≤ 0.063 µg/mL

Fill in the blank: the reported MIC of O=C(NNC(=S)NC1CC2CCC1C2)c1cc2ccccc2cc1O (stereo not drawn) [Chemical #4] is ____. > 32 µg/mL

Look up MIC: O=C(c1cccc(-n2cnnc2)c1)N1CC2CCC(Cc3cccc(Cl)c3)C2C1 (stereo not drawn) [Chemical #5] > 64 µg/mL
